Data credit: the kinase profiling compilation of Christmann-Franck et al. (2016)

# measured_on: EPHA5 (human) (UniProt P54756)
# Sequence (P54756 whole entry, looked up): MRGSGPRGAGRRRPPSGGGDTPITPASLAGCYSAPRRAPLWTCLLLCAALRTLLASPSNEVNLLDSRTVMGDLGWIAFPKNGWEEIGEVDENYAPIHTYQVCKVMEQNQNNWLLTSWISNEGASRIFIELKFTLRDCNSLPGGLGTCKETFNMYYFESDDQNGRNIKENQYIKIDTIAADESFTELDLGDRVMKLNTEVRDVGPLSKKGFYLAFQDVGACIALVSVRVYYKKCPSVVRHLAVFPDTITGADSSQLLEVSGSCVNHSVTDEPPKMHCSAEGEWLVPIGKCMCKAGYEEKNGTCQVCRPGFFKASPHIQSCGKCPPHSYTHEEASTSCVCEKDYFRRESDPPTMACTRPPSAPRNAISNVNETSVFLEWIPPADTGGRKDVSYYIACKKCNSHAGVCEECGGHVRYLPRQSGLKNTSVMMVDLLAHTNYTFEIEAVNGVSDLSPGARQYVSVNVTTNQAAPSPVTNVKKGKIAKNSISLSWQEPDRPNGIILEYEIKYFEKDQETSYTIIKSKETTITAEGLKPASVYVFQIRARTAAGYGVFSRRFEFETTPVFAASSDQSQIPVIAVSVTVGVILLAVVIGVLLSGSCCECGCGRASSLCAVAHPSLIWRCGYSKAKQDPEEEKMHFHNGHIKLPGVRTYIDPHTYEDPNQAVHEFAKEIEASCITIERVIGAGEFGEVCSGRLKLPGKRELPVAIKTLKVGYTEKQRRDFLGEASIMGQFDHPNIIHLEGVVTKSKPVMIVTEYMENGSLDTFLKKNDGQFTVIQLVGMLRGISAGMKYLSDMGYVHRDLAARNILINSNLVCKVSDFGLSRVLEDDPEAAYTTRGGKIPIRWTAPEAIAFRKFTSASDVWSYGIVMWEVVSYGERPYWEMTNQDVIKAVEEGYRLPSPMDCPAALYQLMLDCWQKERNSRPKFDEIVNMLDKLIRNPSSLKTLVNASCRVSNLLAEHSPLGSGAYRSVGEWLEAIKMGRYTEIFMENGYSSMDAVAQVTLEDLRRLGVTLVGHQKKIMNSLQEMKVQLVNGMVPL
# measurement_notes: radiometric filter-binding kinase assay, Kinase HotSpot
# protocol_conditions: compound 0.5 µM; ATP 10 µM
quantity_measured: residual activity (%)
Numbers only here, please. The scale is %.

For orientation, consider the following solved cases.
{"chem_smiles": "O=C(O)/C=C/c1cc(Br)c(Br)c(Br)c1Br", "residual activity (%)": 88.7}
{"chem_smiles": "Cc1nc2cc3nc(-c4cccs4)cnc3cc2n1C", "residual activity (%)": 105}
{"chem_smiles": "Oc1ccc(Nc2nc(-c3ccc(Cl)cc3)cs2)cc1", "residual activity (%)": 92.6}
{"chem_smiles": "CCn1cnc2c(Nc3cccc(Cl)c3)nc(N[C@@H]3CCCC[C@@H]3N)nc21", "residual activity (%)": 73.9}
{"chem_smiles": "CC(=O)O/N=C1\\C(=C2\\C(=O)Nc3cc(Br)ccc32)Nc2ccccc21", "residual activity (%)": 102}

Shift focus to the following entry.
Exam item: Look up residual activity of Nc1nnc2[nH]c3ccccc3nc1-2 and report it.
Marked response: 90.3
